Value source: ChEMBL document CHEMBL1121713

// reported inhibition in vivo at 10 mg/kg per item
# Tested on: Rattus norvegicus
# run description: Antiinflammatory activity of compound expressed as percentage inhibition of carrageenan edema 4 hr after an oral dose of 10 mg/kg.
# Type: functional

These recorded examples may help you get a feel for the data.
compound=CCCCC1C(=O)N(c2ccccc2)N(c2ccccc2)C1=O observable="inhibition in vivo at 10 mg/kg" measured_result=35%
compound=CN1C(C(=O)Nc2cc(O)ccn2)=C(O)c2ccccc2S1(=O)=O observable="inhibition in vivo at 10 mg/kg" measured_result=10%
compound=CN1C(C(=O)Nc2ncccc2O)=C(O)c2ccccc2S1(=O)=O observable="inhibition in vivo at 10 mg/kg" measured_result=13%
compound=CN1C(C(=O)Nc2cccc(O)n2)=C(O)c2ccccc2S1(=O)=O observable="inhibition in vivo at 10 mg/kg" measured_result=31%
compound=CN1C(C(=O)Nc2ccccn2)=C(O)c2ccccc2S1(=O)=O observable="inhibition in vivo at 10 mg/kg" measured_result=67%
compound=CN1c2c(n3ccccc3nc2=O)-c2ccccc2S1(=O)=O observable="inhibition in vivo at 10 mg/kg" measured_result=38%

As a next step, examine the compound that follows.
For CN1C(C(=O)Nc2ccc(O)cn2)=C(O)c2ccccc2S1(=O)=O [HYDROXY PIROXICAM METABOLITE] , what is its reported inhibition in vivo at 10 mg/kg?
15%
